Test: Human HepG2 cell viability assay in 384 well format
Assay type: toxicity, cell-based
Parameters: dose 125 nL, time 70.5 hour; concentration not given beside the values
Conditions: HepG2 cells, read-out: Inhibition
Each entry below lists one item and its recorded cytotoxicity at 70.5 h value.
Report as: number unit

Cc1cccc(S(=O)(=O)N2CCCc3c(c(=O)n(C)n3C)C2)c1: -9.39%
O=C(NC1CC1)[C@@]12CCO[C@@H]1CCN(Cc1ccc3c(c1)OCO3)C2: 2.54%
Cc1cccc(C(=O)N2CCCCC2c2ccc(CN(C)C)cc2)n1 (stereo unspecified): 18.3%
CCOCCC(=O)N1C[C@H]2CC[C@@H]1CN(Cc1ccncc1)C2: -11.6%
CCC1=N[C@@]2(CC[C@@H]3CN(Cc4ccccc4C)C[C@@H]32)C(=O)N1: -4.43%
CCc1nc(CNC2CCN(c3ccc(OC)cc3)CC2)cs1: -5.26%
Cc1cc(CC(C)NC2CCN(CC(C)C)CC2)[nH]n1 (stereo unspecified): -10.6%
Cn1cc(CCC(=O)N2C[C@H]3CC[C@@H]2CN(Cc2cccnc2)C3)cn1: 12.2%

Entry N#Cc1ccc(CNC(=O)NC2CCCN(c3ncccn3)C2)cc1 (stereo unspecified) — recorded cytotoxicity at 70.5 h = -9.27%

Entry O=C(c1cc(=O)c(OCc2ccccc2F)co1)N1CCCC1 — recorded cytotoxicity at 70.5 h = 1.91%

Entry Cc1cnn(C2CCCN(C(=O)CCCOc3cccc(F)c3)C2)c1 (stereo unspecified) — recorded cytotoxicity at 70.5 h = 0.97%

====

Each entry below lists one item and its recorded cytotoxicity at 70.5 h value.
Assay: Human HepG2 cell viability assay in 384 well format
Format: toxicity, cell-based
Parameters: dose 125 nL, time 70.5 hour; concentration not given beside the values
Details: HepG2 cells, read-out: Inhibition
Number in %, nothing else.

Entry CN(C)CCNC(=O)c1noc2c1CN(C(=O)N(C)C)CC2 — recorded cytotoxicity at 70.5 h = -6.62

Entry Cc1noc(C(C)N(C)Cc2ccco2)n1 (stereo not drawn) — recorded cytotoxicity at 70.5 h = -6.09

Entry CC(C)C(C(=O)NC1CCOCC1)n1cnc2cc(F)c(F)cc21 (stereo not drawn) — recorded cytotoxicity at 70.5 h = 1.78

====

Assay: Human HepG2 cell viability assay in 384 well format
Type: toxicity, cell-based
Design: dose 125 nL, time 70.5 hour; concentration not given beside the values
Conditions: HepG2 cells, read-out: Inhibition
quantity.name: cytotoxicity at 70.5 h (%)
Number in %, nothing else.

Record excerpt, results attached:
Cc1cc(C(=O)N2CCCC(n3cncn3)C2)c(C)n1C1CC1 (stereo not drawn): -1.59
O=S(=O)(NCC1(O)CCOCC1)c1c(F)cccc1F: -2.88
CCn1c(Cn2cncn2)nnc1C1CCN(C2CCOCC2)CC1: 34.9
COC(=O)c1cc(C)nc(N2CCN(Cc3cc(C(C)C)no3)CC2)n1: -12.8
O=C(Cc1ccc2c(c1)OCO2)N[C@@H]1CCNC[C@H]1O: -3.71
CS(=O)(=O)N[C@@H]1CCO[C@]2(CCN(C(=O)c3cnccn3)C2)C1: -5.97
COc1cccc(NC(=O)NCC(O)c2ccc(F)cc2F)c1 (stereo not drawn): -6.35
O=C(c1csc(-c2ccco2)n1)N1CCOc2ncccc21: 0.101

Entry CCCc1cncnc1N1CCC2(CCC(=O)N(C3CCCC3)C2)CC1 — recorded cytotoxicity at 70.5 h = -12.7

Entry Cc1cccc(CC2COCCN(Cc3nccn3C)C2)n1 (stereo not drawn) — recorded cytotoxicity at 70.5 h = -2.76

Entry Cc1cnn(C2CCCN(C(=O)c3cc(-c4ccccc4C)n[nH]3)C2)c1 (stereo not drawn) — recorded cytotoxicity at 70.5 h = 9.61

Entry COCC1CN(C(=O)CS(C)(=O)=O)Cc2ncn(CC3CC3)c21 (stereo not drawn) — recorded cytotoxicity at 70.5 h = 1.88

Entry Cc1nc(CN2C(=O)CC[C@@H]3[C@H]2CCN3C(=O)c2ccno2)cs1 — recorded cytotoxicity at 70.5 h = -1.87

Entry Cc1nn(C)c(C)c1-c1cnc(CC2CCNCC2)cn1 — recorded cytotoxicity at 70.5 h = -4.79

Entry Cc1nc(NCc2ccc(F)cc2)cc(C(=O)N2CCOCC2)n1 — recorded cytotoxicity at 70.5 h = -3.46

Entry O=C(CCSc1ccccc1)NS(=O)(=O)c1ccc2c(c1)OCCO2 — recorded cytotoxicity at 70.5 h = -6.91

Entry O=C(Cn1ccc2sccc2c1=O)NCCCc1ccccc1 — recorded cytotoxicity at 70.5 h = -9.43

Entry O=C(Cc1ccc2c(c1)OCCO2)NC1CCCC1 — recorded cytotoxicity at 70.5 h = 10.8

Entry CCN1CCC(NC(=O)CN2CCCC2Cn2cccn2)CC1 (stereo not drawn) — recorded cytotoxicity at 70.5 h = 32.9

Entry CS(=O)(=O)N1CCC(c2nc3ccc(-c4cccc(F)c4)cn3n2)CC1 — recorded cytotoxicity at 70.5 h = -5.73

====

Assay: Human HepG2 cell viability assay in 384 well format
Type: toxicity, cell-based
Design: dose 125 nL, time 70.5 hour; concentration not given beside the values
Details: HepG2 cells, read-out: Inhibition
Each entry below lists one item and its recorded cytotoxicity at 70.5 h value.

Record excerpt, results attached:
O=C(CCn1nc(C(F)(F)F)c(Br)c1C1CC1)NN1CCOCC1: -4.82%
COCC(=O)N1CCC2(CC1)COc1ccccc1S(=O)(=O)N(C)C2: 0.748%
CCCc1n[nH]cc1C(=O)NCC1COc2cc(OC)ccc2C1 (stereo unspecified): 14.2%
CC(=O)N1CCC2(CCCN(C(=O)CCN3CCCCC3)C2)C1 (stereo unspecified): 20.2%
O=C(Cn1cc(-c2ccccc2)ncc1=O)NC1CCCCC1: 5.64%

Below: the item to evaluate.
Entry Cc1cc(NC(=O)NCCC(=O)N2CCCc3ccccc32)no1 — recorded cytotoxicity at 70.5 h = -6.7%

====

Each entry below lists one item and its recorded cytotoxicity at 70.5 h value.
Assay: Human HepG2 cell viability assay in 384 well format
Format: toxicity, cell-based
Design: dose 125 nL, time 70.5 hour; concentration not given beside the values
Conditions: HepG2 cells, read-out: Inhibition
Number in %, nothing else.

Record excerpt, results attached:
COCCN(CCOC)C(=O)c1c[nH]nc1-c1cccc(F)c1: 0.751
COc1ccc(CN2CC(O)CN(C(=O)CC(C)C)CC2=O)cc1 (stereo unspecified): 4.85
N#Cc1c(F)cccc1NCCCOCC1CCOCC1: -3.66

Entry CC(O)CN1CCN(C(=O)c2cccc3[nH]ncc23)CC1 (stereo unspecified) — recorded cytotoxicity at 70.5 h = -3.67

Entry COc1ccc(-c2cnc(CN3CCCC3Cn3cccn3)o2)cc1 (stereo unspecified) — recorded cytotoxicity at 70.5 h = -7.48

Entry Cc1nc(CN2C[C@@H](CN3CCOCC3)[C@@H](CO)C2)c2ccccn12 — recorded cytotoxicity at 70.5 h = 16.5

====

Each entry below lists one item and its recorded cytotoxicity at 70.5 h value.
Assay: Human HepG2 cell viability assay in 384 well format
Type: toxicity, cell-based
Parameters: dose 125 nL, time 70.5 hour; concentration not given beside the values
Conditions: HepG2 cells, read-out: Inhibition
Number in %, nothing else.

Cc1cccc(C(C(=O)NCCCc2ccccn2)N(C)C)c1 (centres undefined): 21.2
CCCC(=O)N1CCCC1(C)c1nc(C)no1 (centres undefined): -14.9
COc1cc(-n2cc(CCO)cn2)ccc1NC(C)=O: -9.17

Entry CCCOc1ccccc1CCCNc1ncnc2oc(C)nc12 — recorded cytotoxicity at 70.5 h = -7.16

Entry Cc1cc(F)ccc1OC1(C(=O)O)CCN(Cc2cccnc2)CC1 — recorded cytotoxicity at 70.5 h = 3.7

Entry Cc1ccc(CN2CCCN(Cc3cscn3)CC2)cc1 — recorded cytotoxicity at 70.5 h = 3.58

Entry CC(C)c1nc2c(n1C)CCN(CCS(=O)(=O)c1ccccc1)C2 — recorded cytotoxicity at 70.5 h = -12.4

Entry C[C@@H](NC(=O)c1cnccn1)c1c(-c2ccc(Cl)cc2)noc1C(=O)O — recorded cytotoxicity at 70.5 h = -5.53

Entry COc1cc(C)nc(N2CCN(C(=O)COCC3CC3)CC2)n1 — recorded cytotoxicity at 70.5 h = -3.61

====

Assay: Human HepG2 cell viability assay in 384 well format
Assay type: toxicity, cell-based
Parameters: dose 125 nL, time 70.5 hour; concentration not given beside the values
Details: HepG2 cells, read-out: Inhibition
quantity.name: cytotoxicity at 70.5 h (%)
Number in %, nothing else.

O=C1CC2(CCN(Cc3ncc[nH]3)CC2)CN1Cc1cc(F)cc(F)c1: -3.59

Entry COCC1CCCN(CCCc2cccc(OC)c2)C1 (centres undefined) — recorded cytotoxicity at 70.5 h = 37.4

Entry O=C(C(CNCc1ccco1)c1ccccc1)N1CCOCC1 (centres undefined) — recorded cytotoxicity at 70.5 h = -4.97

Entry CC(C)c1ocnc1C(=O)N1CCC2(CC1)OCCO2 — recorded cytotoxicity at 70.5 h = -8.01

Entry CNC(=O)c1ccc(C2CN(CC(=O)N(C)C)CCO2)nc1 (centres undefined) — recorded cytotoxicity at 70.5 h = -5.57

Entry CC1=N[C@@]2(CC[C@@H]3CN(Cc4ccccc4F)C[C@@H]32)C(=O)N1CC1CC1 — recorded cytotoxicity at 70.5 h = -0.339

Entry Cc1ccc(C(=O)NC2CCN(Cc3nc(C(C)C)no3)CC2)s1 — recorded cytotoxicity at 70.5 h = -5.38

Entry Cc1ccc(O)c(CNc2cccc(OCCF)c2)n1 — recorded cytotoxicity at 70.5 h = -5.5

Entry O=C(C[C@@H]1COC[C@H]2CN(Cc3ccncc3)C[C@@H]12)N1CCOCC1 — recorded cytotoxicity at 70.5 h = -13.2

Entry C[C@@H]1CN(Cc2ccccc2F)CC(C(N)=O)O1 (some centres undefined) — recorded cytotoxicity at 70.5 h = -14.1

Entry Cc1cc(OCCC(=O)Nc2cccc(F)c2)nnc1C — recorded cytotoxicity at 70.5 h = 8.29

Entry Cc1cc(CN2CCN(C(=O)C(C(C)C)n3cncn3)CC2)no1 (centres undefined) — recorded cytotoxicity at 70.5 h = -8.12

Entry Cc1nn(C)c(Cl)c1C1CCCN1CCc1ccccn1 (centres undefined) — recorded cytotoxicity at 70.5 h = 1.44

Entry CN1CCN(c2ccc(F)cc2NC(=O)NCCn2ccnc2)CC1 — recorded cytotoxicity at 70.5 h = -0.0867

Entry CNC(=O)C1CCC2(CCN(c3nncs3)CC2)CO1 (centres undefined) — recorded cytotoxicity at 70.5 h = -2.99

Entry CCC(=O)N1CCC(Cc2ccccc2-c2ccccc2F)(C(N)=O)C1 (centres undefined) — recorded cytotoxicity at 70.5 h = -8.54

Entry CCS(=O)(=O)N1CCCC(Cc2cnccn2)C1 (centres undefined) — recorded cytotoxicity at 70.5 h = -6.07
